Sourced from patent US20250355001A1

# Tested on: hT40, dGA, dGAE and truncated tau fragments
# assay: Binding ELISA / epitope mapping of anti-tau scAbs with truncated tau proteins and 13mer peptides
# Design: species or system human
# setupConditions: residue numbers of SEQ ID NO: 1 (hT40); CDR Tables 1-11
Reported Epitope is given for each of the following molecules.

| molecule | Epitope |
| --- | --- |
| CE3: anti-tau core clone, Table 10; SEQ ID NO: 367 (protein, CE3 amino acid sequence) scFv: QVRLQESGPSLVKPSQTLSVTCTVSGFSLISNAVGWVRQAPGKVPESLAGCSSDGKCYYNSALKSRLDITRDTSKNQISLSLSSVTTDDAAVYYCTRGYYPVYGYDYLGTIDYWGPGLLVTVSSEGKSSGASGESKVDDQAVLTQPSSVSGSLGQRVSITCSGSSSNVGRNDVAWFQQLPGSGLRTIIYGTTSRPSGIPDRFSGSKSGVTATLTIDSLQAEDEADYFCASGDSSAINDIFGSGTRLTVLG | 331-360 |

Pending molecule:
QUERY: // Epitope lookup, key: NS2A1: anti-tau clone, Table 11; SEQ ID NO: 220 (protein, NS2A1 amino acid sequence) scFv: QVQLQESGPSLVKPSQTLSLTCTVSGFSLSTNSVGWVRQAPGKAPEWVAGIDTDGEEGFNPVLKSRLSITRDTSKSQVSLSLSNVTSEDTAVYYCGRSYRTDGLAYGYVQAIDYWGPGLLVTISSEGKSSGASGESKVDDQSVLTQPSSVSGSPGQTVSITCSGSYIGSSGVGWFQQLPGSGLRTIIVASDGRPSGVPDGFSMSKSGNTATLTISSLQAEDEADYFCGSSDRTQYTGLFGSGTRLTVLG
RESULT: 297-390
